experiment: Biodistribution of radiopharmaceuticals in rats with tourniquet on left hind leg
Format: in vivo, Sprague-Dawley rats
test.conditions: Left Femur (partially protected by tourniquet); tourniquet 20 minute; i.v. tail vein

{"chem.smiles": "O=P(O)(O)CN(CCN(CP(=O)(O)O)CP(=O)(O)O)CP(=O)(O)O.[Ho+3]", "Femoral Percentage Dose per Gram, Percentage Dose per Gram": 2.33}
{"chem.smiles": "O=P(O)(O)CN1CCN(CP(=O)(O)O)CCN(CP(=O)(O)O)CCN(CP(=O)(O)O)CC1.[Sm+3]", "Femoral Percentage Dose per Gram, Percentage Dose per Gram": 1.40}
{"chem.smiles": "O=P(O)(O)CN(CCN(CP(=O)(O)O)CP(=O)(O)O)CP(=O)(O)O.[Sm+3]", "Femoral Percentage Dose per Gram, Percentage Dose per Gram": 2.05}
{"chem.smiles": "O=P(O)(O)CN1CCN(CP(=O)(O)O)CCN(CP(=O)(O)O)CCN(CP(=O)(O)O)CC1.[Ho+3]", "Femoral Percentage Dose per Gram, Percentage Dose per Gram": 1.33}
